// data source = patent US20230172206A1

- Test system: Phakopsora pachyrhizi (F129L)
- assay_remarks: Protective control of soybean rust on soybeans (PHAKPA P2)
- Format: in vivo
- experimental_parameters: protective P2, 16 ppm, soybean rust F129L isolate
Think of 1% as a floor: if % PHAKPA (F129L) Disease level P2 at 16 ppm stands on it or above, it is TRUE; beneath it, FALSE.

Worked examples, 6 compounds total:
[
  {
    "compound": "CNC(=O)/C(=N/OC)c1cccc(C)c1CO/N=C(\\C)c1ccc(C)cc1OC(F)(F)F [compound 340]",
    "assayed_target": "Phakopsora pachyrhizi (F129L)",
    "classification": "TRUE"
  },
  {
    "compound": "CO/N=C(/C(=O)OC)c1cccc(C)c1CO/N=C(\\C)c1cc(Cl)c(F)c(Cl)c1 [compound 246]",
    "assayed_target": "Phakopsora pachyrhizi (F129L)",
    "classification": "TRUE"
  },
  {
    "compound": "CNC(=O)/C(=N/OC)c1cccc(C)c1CO/N=C(\\C)c1cc(C)ccc1C [compound 278]",
    "assayed_target": "Phakopsora pachyrhizi (F129L)",
    "classification": "TRUE"
  },
  {
    "compound": "CNC(=O)/C(=N/OC)c1cccc(C)c1CO/N=C(\\C)c1c(F)ccc(C(F)(F)F)c1NC [compound 233]",
    "assayed_target": "Phakopsora pachyrhizi (F129L)",
    "classification": "TRUE"
  },
  {
    "compound": "CNC(=O)/C(=N/OC)c1cccc(C)c1CO/N=C(\\C)c1cc(Cl)cc(C(F)(F)F)c1 [compound 228]",
    "assayed_target": "Phakopsora pachyrhizi (F129L)",
    "classification": "FALSE"
  },
  {
    "compound": "CNC(=O)/C(=N/OC)c1cccc(C)c1CO/N=C(\\C)c1ccc(OC(F)(F)F)cc1F [compound 270]",
    "assayed_target": "Phakopsora pachyrhizi (F129L)",
    "classification": "FALSE"
  }
]

Input line: Please tell me: is the compound CNC(=O)/C(=N/OC)c1cccc(C)c1CO/N=C(\C)c1ccc(OC(F)(F)F)cc1C [compound 261] at or over 1% in terms of % PHAKPA (F129L) Disease level P2 at 16 ppm?
Output line: TRUE

Input line: Please tell me: is the compound CO/N=C(/C(=O)OC)c1cccc(C)c1CO/N=C(\C)c1ccc(Cl)cc1C(F)(F)F [compound 304] at or over 1% in terms of % PHAKPA (F129L) Disease level P2 at 16 ppm?
Output line: TRUE

Input line: Please tell me: is the compound CNC(=O)/C(=N/OC)c1cccc(C)c1CO/N=C(\C)c1ccccc1C1CC1 [compound 219] at or over 1% in terms of % PHAKPA (F129L) Disease level P2 at 16 ppm?
Output line: TRUE

Input line: Please tell me: is the compound C#Cc1cc(F)ccc1/C(C)=N/OCc1c(C)cccc1/C(=N\OC)C(=O)NC [compound 286] at or over 1% in terms of % PHAKPA (F129L) Disease level P2 at 16 ppm?
Output line: TRUE

* * *

- Test system: Phakopsora pachyrhizi (F129L)
- assay_remarks: Protective control of soybean rust on soybeans (PHAKPA P6)
- Format: in vivo
- experimental_parameters: protective P6, 4 ppm, F129L isolate
Recorded % PHAKPA (F129L) Disease level P6 at 4 ppm by entry
Please reply with the bare figure in % and do not write the unit itself.

[
  {
    "smiles_data": "CNC(=O)/C(=N/OC)c1cccc(C)c1CO/N=C(\\C)c1ccc(Cl)c(F)c1OC(F)(F)F",
    "assayed_target": "Phakopsora pachyrhizi (F129L)",
    "result_value": 57
  },
  {
    "smiles_data": "CNC(=O)/C(=N/OC)c1cccc(C)c1CO/N=C(\\C)c1c(Cl)ccc(F)c1OC(F)(F)F",
    "assayed_target": "Phakopsora pachyrhizi (F129L)",
    "result_value": 73
  },
  {
    "smiles_data": "CO/N=C(/C(=O)OC)c1cccc(C)c1CO/N=C(\\C)c1ccc(F)c(F)c1OC(F)(F)F",
    "assayed_target": "Phakopsora pachyrhizi (F129L)",
    "result_value": 33
  },
  {
    "smiles_data": "CNC(=O)/C(=N/OC)c1cccc(C)c1CO/N=C(\\C)c1ccc(/C(C)=N\\OC)cc1C(F)(F)F",
    "assayed_target": "Phakopsora pachyrhizi (F129L)",
    "result_value": 12
  },
  {
    "smiles_data": "CNC(=O)/C(=N/OC)c1cccc(C)c1CO/N=C(\\C)c1c(Cl)cc(Cl)cc1OC(F)(F)F",
    "assayed_target": "Phakopsora pachyrhizi (F129L)",
    "result_value": 83
  },
  {
    "smiles_data": "CNC(=O)/C(=N/OC)c1cccc(C)c1CO/N=C(\\C)c1cc(F)c(F)cc1CC(F)(F)F",
    "assayed_target": "Phakopsora pachyrhizi (F129L)",
    "result_value": 67
  },
  {
    "smiles_data": "CO/C=C(/C(=O)OC)c1cccc(C)c1CO/N=C(\\C)c1ccccc1OC(F)(F)F",
    "assayed_target": "Phakopsora pachyrhizi (F129L)",
    "result_value": 55
  },
  {
    "smiles_data": "CNC(=O)/C(=N/OC)c1cccc(C)c1CO/N=C(\\C)c1ccc(C#N)cc1C(F)(F)F",
    "assayed_target": "Phakopsora pachyrhizi (F129L)",
    "result_value": 97
  },
  {
    "smiles_data": "CO/C=C(/C(=O)OC)c1cccc(C)c1CO/N=C(\\C)c1c(Cl)ccc(F)c1OC(F)(F)F",
    "assayed_target": "Phakopsora pachyrhizi (F129L)",
    "result_value": 80
  }
]

Input line: Item `CNC(=O)/C(=N/OC)c1cccc(Br)c1CO/N=C(\C)c1ccccc1` : provide % PHAKPA (F129L) Disease level P6 at 4 ppm
Output line: 4
